// data source = patent US10336775B2

# TARGET_UNDER_TEST: His-Tagged hOGA (human O-GlcNAcase) (Homo sapiens (Human))
# TEST_PROTOCOL: Human O-GlcNAcase enzyme inhibition assay (Example B01)
# Format: biochemical
# PROTOCOL_CONDITIONS: read-out: OGA IC50
OBSERVABLE: IC50 (nM)

COMPOUND	OBSERVABLE	MEASUREMENT_UNITS	MEAS_VALUE
c1cnc(N2CCN(Cc3ccc4c(c3)OCO4)CC2)nc1 [U.S. Pat. No. 3,299,067 (Example 1), reference compound]	IC50	nM	998

====

# TARGET_UNDER_TEST: His-Tagged hOGA (human O-GlcNAcase) (Homo sapiens (Human), UniProt O60502)
# Sequence (O60502 whole entry): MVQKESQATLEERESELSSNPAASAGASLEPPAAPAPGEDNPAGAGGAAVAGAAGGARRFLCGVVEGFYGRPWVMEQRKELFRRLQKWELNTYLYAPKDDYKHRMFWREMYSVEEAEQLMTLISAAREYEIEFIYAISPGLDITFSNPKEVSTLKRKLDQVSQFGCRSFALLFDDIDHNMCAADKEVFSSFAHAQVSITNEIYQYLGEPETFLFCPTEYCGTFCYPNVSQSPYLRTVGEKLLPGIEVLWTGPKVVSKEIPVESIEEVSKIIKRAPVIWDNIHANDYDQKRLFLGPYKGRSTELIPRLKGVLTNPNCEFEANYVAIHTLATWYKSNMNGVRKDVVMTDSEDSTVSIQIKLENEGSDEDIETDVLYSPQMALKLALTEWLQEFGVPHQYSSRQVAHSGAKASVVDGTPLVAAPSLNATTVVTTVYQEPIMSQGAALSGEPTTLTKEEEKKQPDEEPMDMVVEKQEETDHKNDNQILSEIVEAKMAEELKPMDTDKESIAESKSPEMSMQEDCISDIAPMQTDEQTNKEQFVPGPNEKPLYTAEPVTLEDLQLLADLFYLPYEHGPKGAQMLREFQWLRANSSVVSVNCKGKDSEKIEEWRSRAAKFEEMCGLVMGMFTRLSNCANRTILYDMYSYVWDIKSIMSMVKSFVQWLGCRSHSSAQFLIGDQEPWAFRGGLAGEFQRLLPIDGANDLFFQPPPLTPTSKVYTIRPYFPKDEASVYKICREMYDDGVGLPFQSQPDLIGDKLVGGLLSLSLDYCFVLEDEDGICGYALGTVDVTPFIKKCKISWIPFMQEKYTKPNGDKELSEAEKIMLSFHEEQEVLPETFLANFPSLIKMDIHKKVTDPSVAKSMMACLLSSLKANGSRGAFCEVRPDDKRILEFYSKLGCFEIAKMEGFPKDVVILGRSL
# TEST_PROTOCOL: Human O-GlcNAcase enzyme inhibition assay (Example B01)
# Format: biochemical
# PROTOCOL_CONDITIONS: OGA enzyme inhibition assay; activity range classes defined in μM; read-out: OGA IC50
OBSERVABLE: IC50

COMPOUND	OBSERVABLE	MEAS_VALUE
CC(c1ccc2c(c1)OCO2)N1CCN(c2ncc(C(=O)N3CCOCC3)s2)CC1 (racemic)	IC50	0.05 to 0.2 µM
CC(=O)Nc1cnc(N2CCN(C(C)c3ccc4ncsc4c3)CC2)nc1 (racemic)	IC50	1 to 10 µM
C[C@@H](c1ccc2c(c1)OCO2)N1CCN(c2nc3cnccc3s2)CC1	IC50	0.05 to 0.2 µM
CCNc1nnc(N2CCN([C@@H](C)c3ccc4c(c3)OCO4)CC2)s1	IC50	0.05 to 0.2 µM

====

# TARGET_UNDER_TEST: His-Tagged hOGA (human O-GlcNAcase) (Homo sapiens (Human))
# TEST_PROTOCOL: Human O-GlcNAcase enzyme inhibition assay (Example B01)
# Assay type: biochemical
# PROTOCOL_CONDITIONS: OGA enzyme inhibition assay; activity range classes defined in μM; read-out: OGA IC50

COMPOUND	TARGET_UNDER_TEST	IC50
CC(c1ccc2c(c1)OCO2)N1CCN(c2nnc(N)s2)CC1 (racemic)	His-Tagged hOGA (human O-GlcNAcase) (Homo sapiens (Human))	0.05 to 0.2 µM
CC(c1ccc2c(c1)OCO2)N1CCN(c2ncc(C(N)=O)s2)CC1 (racemic)	His-Tagged hOGA (human O-GlcNAcase) (Homo sapiens (Human))	< 0.05 µM
CC(=O)Nc1nnc(N2CCN(C(C)c3ccc4ncsc4c3)CC2)s1 (racemic)	His-Tagged hOGA (human O-GlcNAcase) (Homo sapiens (Human))	1 to 10 µM
CC(=O)N1CCc2nc(N3CCN([C@@H](C)c4ccc5c(c4)OCO5)CC3)sc2C1	His-Tagged hOGA (human O-GlcNAcase) (Homo sapiens (Human))	< 0.05 µM
CC(=O)Nc1nnc(N2CCN(C(C)c3ccc4nsnc4c3)CC2)s1 (racemic)	His-Tagged hOGA (human O-GlcNAcase) (Homo sapiens (Human))	< 0.05 µM
CCOC(=O)c1cnc(N2CCN(C(C)c3ccc4c(c3)OCO4)CC2)nc1 (racemic)	His-Tagged hOGA (human O-GlcNAcase) (Homo sapiens (Human))	0.05 to 0.2 µM
CC(c1ccc2c(c1)OCO2)N1CCN(c2nnc(NC(=O)C3CC3)s2)CC1 (racemic)	His-Tagged hOGA (human O-GlcNAcase) (Homo sapiens (Human))	< 0.05 µM
CC(c1ccc2c(c1)OCO2)N1CCN(c2cc(Cl)ncn2)CC1 (racemic)	His-Tagged hOGA (human O-GlcNAcase) (Homo sapiens (Human))	0.05 to 0.2 µM
Cc1cnc2cc(C(C)N3CCN(c4ncccn4)CC3)ccc2c1 (racemic)	His-Tagged hOGA (human O-GlcNAcase) (Homo sapiens (Human))	1 to 10 µM
CC(c1ccc2c(c1)OCO2)N1CCN(c2ccnc(Cl)n2)CC1 (racemic)	His-Tagged hOGA (human O-GlcNAcase) (Homo sapiens (Human))	0.05 to 0.2 µM
C[C@@H](c1ccc2c(c1)OCO2)N1CCN(c2nc3ccccc3s2)CC1	His-Tagged hOGA (human O-GlcNAcase) (Homo sapiens (Human))	0.2 to 1 µM
CC(=O)Nc1nnc(N2CCN(C(C)c3ccc4scnc4c3)CC2)s1 (single isomer, unassigned) [Example 133]	His-Tagged hOGA (human O-GlcNAcase) (Homo sapiens (Human))	< 0.05 µM
CC(=O)Nc1cnc(N2CCN(C(C)c3ccc4nsnc4c3)CC2)nc1 (racemic)	His-Tagged hOGA (human O-GlcNAcase) (Homo sapiens (Human))	< 0.05 µM
Cc1nnc(C2CCN(C(C)c3ccc4c(c3)OCO4)CC2)o1 (racemic)	His-Tagged hOGA (human O-GlcNAcase) (Homo sapiens (Human))	0.2 to 1 µM
CC(=O)Nc1cnc(N2CCN(C(C)c3ccc4sc(C)nc4c3)CC2)nc1 (racemic)	His-Tagged hOGA (human O-GlcNAcase) (Homo sapiens (Human))	< 0.05 µM
CC(c1ccc2nccnc2c1)N1CCN(c2ccc(C(F)(F)F)cn2)CC1 (racemic)	His-Tagged hOGA (human O-GlcNAcase) (Homo sapiens (Human))	0.2 to 1 µM
C[C@@H](c1ccc2c(c1)OCO2)N1CCN(c2ncc(F)cn2)CC1	His-Tagged hOGA (human O-GlcNAcase) (Homo sapiens (Human))	< 0.05 µM
CC(c1ccc2c(c1)OCO2)N1CCN(c2nc(-c3ccccc3)cs2)CC1 (racemic)	His-Tagged hOGA (human O-GlcNAcase) (Homo sapiens (Human))	0.2 to 1 µM
CCCNc1nnc(N2CCN([C@@H](C)c3ccc4c(c3)OCO4)CC2)s1	His-Tagged hOGA (human O-GlcNAcase) (Homo sapiens (Human))	0.05 to 0.2 µM
CC(c1ccc2nccnc2c1)N1CCN(c2ncccn2)CC1 (racemic)	His-Tagged hOGA (human O-GlcNAcase) (Homo sapiens (Human))	0.05 to 0.2 µM
CC(c1ccc2nccnc2c1)N1CCN(c2nccc(C(F)(F)F)n2)CC1 (racemic)	His-Tagged hOGA (human O-GlcNAcase) (Homo sapiens (Human))	0.2 to 1 µM
C[C@@H](c1ccc2c(c1)OCO2)N1CCN(c2nc3c(s2)CNCC3)CC1	His-Tagged hOGA (human O-GlcNAcase) (Homo sapiens (Human))	< 0.05 µM
Cc1ccnc(N2CCN(C(C)c3ccc4c(c3)OCO4)CC2)n1 (racemic)	His-Tagged hOGA (human O-GlcNAcase) (Homo sapiens (Human))	0.2 to 1 µM
CC(c1ccc2c(c1)OCCO2)N1CCN(c2nc(C(N)=O)cs2)CC1 (racemic)	His-Tagged hOGA (human O-GlcNAcase) (Homo sapiens (Human))	0.2 to 1 µM
CCc1csc(N2CCN(C(C)c3ccc4c(c3)OCO4)CC2)n1 (racemic)	His-Tagged hOGA (human O-GlcNAcase) (Homo sapiens (Human))	0.2 to 1 µM
CC(=O)Nc1cnc(N2CCN(C(C)c3ccc4c(c3)OCCO4)CC2)nc1 (racemic)	His-Tagged hOGA (human O-GlcNAcase) (Homo sapiens (Human))	< 0.05 µM
Cc1cnc(N2CCN(C(C)c3ccc4c(c3)OCO4)CC2)s1 (racemic)	His-Tagged hOGA (human O-GlcNAcase) (Homo sapiens (Human))	0.05 to 0.2 µM
CC(c1ccc2c(c1)OCO2)N1CCN(c2ccc(Cl)cn2)CC1 (racemic)	His-Tagged hOGA (human O-GlcNAcase) (Homo sapiens (Human))	0.2 to 1 µM
CC(c1ccc2c(c1)OCO2)N1CCN(c2nc(C(N)=O)cs2)CC1 (racemic)	His-Tagged hOGA (human O-GlcNAcase) (Homo sapiens (Human))	0.05 to 0.2 µM
C[C@@H](c1ccc2c(c1)OCO2)N1CCN(c2nc3ccccc3[nH]2)CC1	His-Tagged hOGA (human O-GlcNAcase) (Homo sapiens (Human))	1 to 10 µM
COc1ccnc(N2CCN(C(C)c3ccc4c(c3)OCO4)CC2)n1 (racemic)	His-Tagged hOGA (human O-GlcNAcase) (Homo sapiens (Human))	0.05 to 0.2 µM
CCCC(=O)Nc1nnc(N2CCN(C(C)c3ccc4c(c3)OCO4)CC2)s1 (racemic)	His-Tagged hOGA (human O-GlcNAcase) (Homo sapiens (Human))	< 0.05 µM
C[C@@H](c1ccc2c(c1)OCO2)N1CCN(c2ncc(C(=O)N(C)C)cn2)CC1	His-Tagged hOGA (human O-GlcNAcase) (Homo sapiens (Human))	< 0.05 µM
